- System: CCRF-CEM
- ASSAY_OVERVIEW: Effective concentration required to inhibit HIV-2 ROD in CEM cell culture
- Assay type: functional, cell-based
- MEASUREMENT_SETUP: Homo sapiens
MEASUREMENT_TYPE: EC50

Check out these entries, answers already filled in.
Cc1cn([C@@H]2O[C@H](CO[Si](C)(C)C(C)(C)C)[C@@]3(OS(=O)(=O)C=C3N)[C@H]2O[Si](C)(C)C(C)(C)C)c(=O)n(C)c1=O; > 250 µM
Cc1cn([C@@H]2O[C@H](CO[Si](C)(C)C(C)(C)C)[C@@]3(OS(=O)(=O)C=C3NCCC(N)=O)[C@H]2O[Si](C)(C)C(C)(C)C)c(=O)n(C)c1=O; > 10 µM
Cc1cn([C@@H]2O[C@@H]3COC4(O)CS(=O)(=O)O[C@@]34[C@H]2O[Si](C)(C)C(C)(C)C)c(=O)[nH]c1=O (stereo not given in full); > 100 µM
Cc1cn([C@@H]2O[C@H](CO[Si](C)(C)C(C)(C)C)[C@@]3(OS(=O)(=O)C=C3NCCC(=O)OCc3ccccc3)[C@H]2O[Si](C)(C)C(C)(C)C)c(=O)n(C)c1=O; > 250 µM

Continue with the compound presented below.
response.value for Cc1cn([C@@H]2O[C@H](CO[Si](C)(C)C(C)(C)C)[C@@]3(OS(=O)(=O)C=C3NCC(=O)OCc3ccccc3)[C@H]2O[Si](C)(C)C(C)(C)C)c(=O)n(C)c1=O (field: EC50) = > 250 µM

---

- System: CCRF-CEM
- ASSAY_OVERVIEW: Effective concentration required to inhibit HIV-1 IIIB in CEM cell culture
- Assay type: functional, cell-based
- MEASUREMENT_SETUP: Homo sapiens
pEC50: −log10 of the molar value.
Catalogue of pEC50 values

COC(=O)NC1=CS(=O)(=O)O[C@@]12[C@@H](CO[Si](C)(C)C(C)(C)C)O[C@@H](n1cc(C)c(=O)n(C)c1=O)[C@@H]2O[Si](C)(C)C(C)(C)C; < 4.70
CCOC(=O)NC(=O)NC1=CS(=O)(=O)O[C@@]12[C@@H](CO[Si](C)(C)C(C)(C)C)O[C@@H](n1cc(C)c(=O)n(C)c1=O)[C@@H]2O[Si](C)(C)C(C)(C)C; < 5.70
Cc1cn([C@@H]2O[C@H](CO[Si](C)(C)C(C)(C)C)[C@@]3(OS(=O)(=O)C=C3NC(=O)NC(=O)c3ccccc3)[C@H]2O[Si](C)(C)C(C)(C)C)c(=O)n(C)c1=O; < 5.70

Per the record, C=C(C)C(=O)NC(=O)NC1=CS(=O)(=O)O[C@@]12[C@@H](CO[Si](C)(C)C(C)(C)C)O[C@@H](n1cc(C)c(=O)n(C)c1=O)[C@@H]2O[Si](C)(C)C(C)(C)C has pEC50 of < 6.10

Measured pEC50 of Cc1cn([C@@H]2O[C@H](CO[Si](C)(C)C(C)(C)C)[C@@]3(OS(=O)(=O)C=C3NCCC(=O)OCc3ccccc3)[C@H]2O[Si](C)(C)C(C)(C)C)c(=O)n(C)c1=O : < 3.60

Reported pEC50 of Cc1cn([C@@H]2O[C@H](CO[Si](C)(C)C(C)(C)C)[C@@]3(OS(=O)(=O)C=C3NCCC(=O)O)[C@H]2O[Si](C)(C)C(C)(C)C)c(=O)n(C)c1=O : < 5.00

pEC50 for Cc1cn([C@@H]2O[C@H](CO[Si](C)(C)C(C)(C)C)[C@@]3(OS(=O)(=O)C=C3NC(N)=O)[C@H]2O[Si](C)(C)C(C)(C)C)c(=O)n(C)c1=O is < 5.70

pEC50 recorded for this compound, Cc1cn([C@@H]2O[C@@H]3COC(=O)[C@]3(OS(C)(=O)=O)[C@H]2O)c(=O)[nH]c1=O , is < 4.30

Recorded pEC50 (compound Cc1cn([C@@H]2O[C@H](CO[Si](C)(C)C(C)(C)C)[C@@]3(OS(=O)(=O)C=C3NCC(N)=O)[C@H]2O[Si](C)(C)C(C)(C)C)c(=O)n(C)c1=O ): < 5.70

# pEC50 (compound: Cc1cn([C@@H]2O[C@@H]3COC4(O)CS(=O)(=O)O[C@@]34[C@H]2O[Si](C)(C)C(C)(C)C)c(=O)[nH]c1=O (stereo partly drawn) ) is < 4.00

Measured pEC50, COC(=O)CCNC1=CS(=O)(=O)O[C@@]12[C@@H](CO[Si](C)(C)C(C)(C)C)O[C@@H](n1cc(C)c(=O)n(C)c1=O)[C@@H]2O[Si](C)(C)C(C)(C)C : < 3.60

What the record says about Cc1cn([C@@H]2O[C@H](CO[Si](C)(C)C(C)(C)C)[C@@]3(OS(=O)(=O)C=C3NC(=O)c3ccccc3)[C@H]2O[Si](C)(C)C(C)(C)C)c(=O)n(C)c1=O : pEC50 is < 5.30

For this compound ( CC(=O)NC1=CS(=O)(=O)O[C@@]12[C@@H](CO[Si](C)(C)C(C)(C)C)O[C@@H](n1cc(C)c(=O)n(C)c1=O)[C@@H]2O[Si](C)(C)C(C)(C)C ), measured pEC50 is < 4.60
